Hello, the source for this data is patent US8071810B2, in case you need it.

Reported values of IC50 for individual entries
Molecular target: human C5a receptor (CD88) (Homo sapiens, UniProt P21730)
Construct: expressed in transfected cells; host or cells: rat basophilic leukemia (RBL) cells, stably transfected
Sequence (P21730 1-350): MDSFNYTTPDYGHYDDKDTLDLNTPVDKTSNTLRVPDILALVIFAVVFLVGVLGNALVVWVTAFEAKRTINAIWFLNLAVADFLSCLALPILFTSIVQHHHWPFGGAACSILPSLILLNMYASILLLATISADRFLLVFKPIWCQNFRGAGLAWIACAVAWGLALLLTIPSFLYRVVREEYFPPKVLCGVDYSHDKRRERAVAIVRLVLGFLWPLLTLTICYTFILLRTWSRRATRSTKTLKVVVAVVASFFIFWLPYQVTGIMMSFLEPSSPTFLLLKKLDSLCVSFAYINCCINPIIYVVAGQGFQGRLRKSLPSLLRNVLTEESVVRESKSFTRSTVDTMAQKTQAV
Test: C5a induced enzyme (glucosaminidase) release assay in RBL cells expressing the human C5a receptor (Example 28)
Type: cell-based
Conditions: inhibition of C5a induced enzyme release, RBL cells with human C5aR; read-out: Activity-range (antagonistic activity, IC50 enzyme release)
measurement.label: IC50

compound	endpoint.result
CCc1c(N)cc(Cl)c(CC)c1NC(=O)N(Cc1ccc(C)nc1)c1ccc(C(C)C)cc1 [compound 76]	0.06 to 0.2 µM
CCc1ccc(N)c(CC)c1NC(=O)N(Cc1ccccc1OC)c1ccc(C(C)C)cc1 [compound 63]	0.2 to 5 µM
CCc1ccc(CN(C(=O)Nc2c(CC)c(N)cc(Cl)c2CC)c2ccc(C(C)C)cc2)cc1 [compound 35]	0.2 to 5 µM
